- System: Rattus norvegicus
- assay.summary: Antiinflammatory activity in albino rat assessed as protection against carrageenan-induced paw edema at 25 mg/kg, po administered 1 hr prior to carrageenan challenge measured after 4 hrs relative to control
- Assay type: functional
test.readout: Activity (%)
Form entry: value (%) — number only.

These recorded examples may help you get a feel for the data.
- compound: "COc1ccc(C2CC(c3ccc(NC(=O)c4cc(Cl)ccc4OC)cc3)=NN2C)cc1 (stereo not drawn)"
  Activity / %: 88.1
- compound: "COc1ccc(/C=C/C(=O)c2ccc(NC(=O)c3cc(Cl)ccc3OC)cc2)cc1"
  Activity / %: 79
- compound: "COc1ccc(Cl)cc1C(=O)Nc1ccc(C2=NN(C)C(c3ccccc3[N+](=O)[O-])C2)cc1 (stereo not drawn)"
  Activity / %: 96.45

Enquiry: For the compound shown here, COc1ccc(Cl)cc1C(=O)Nc1ccc(C2=NN(C(C)=O)C(c3ccccc3[N+](=O)[O-])C2)cc1 (stereo not drawn) , give the reported Activity.
Return: 92.16

Enquiry: For the compound shown here, COc1ccc(C2CC(c3ccc(NC(=O)c4cc(Cl)ccc4OC)cc3)=NN2)cc1 (stereo not drawn) , give the reported Activity.
Return: 82.55

---

- Test system: Rattus norvegicus
- assay.summary: Antiinflammatory activity in albino rat assessed as protection against carrageenan-induced paw edema at 50 mg/kg, po administered 1 hr prior to carrageenan challenge measured after 4 hrs relative to control
- Type: functional
Activity: recorded values
Form entry: value (%) — number only.

These recorded examples may help you get a feel for the data.
- molecule: "COc1ccc(Cl)cc1C(=O)Nc1ccc(C(=O)/C=C/c2ccccc2[N+](=O)[O-])cc1"
  Activity / %: 85.85
- molecule: "COc1ccc(Cl)cc1C(=O)Nc1ccc(C2=NNC(c3ccccc3[N+](=O)[O-])C2)cc1 (stereo not given)"
  Activity / %: 90.89

Enquiry: For the molecule shown here, COc1ccc(C2CC(c3ccc(NC(=O)c4cc(Cl)ccc4OC)cc3)=NN2)cc1 (stereo not given) , give the reported Activity.
Return: 89

Enquiry: For the molecule shown here, COc1ccc(Cl)cc1C(=O)Nc1ccc(C2=NNC(c3ccc([N+](=O)[O-])cc3)C2)cc1 (stereo not given) , give the reported Activity.
Return: 95.3

Enquiry: For the molecule shown here, `C[C@]12C=CC(=O)C=C1CC[C@@H]1[C@@H]2[C@@H](O)C[C@@]2(C)[C@H]1CC[C@]2(O)C(=O)CO` , give the reported Activity.
Return: 92.1

Enquiry: For the molecule shown here, COc1ccc(C2CC(c3ccc(NC(=O)c4cc(Cl)ccc4OC)cc3)=NN2C(C)=O)cc1 (stereo not given) , give the reported Activity.
Return: 90.2

Enquiry: For the molecule shown here, COc1ccc(Cl)cc1C(=O)Nc1ccc(C2=NN(CN3CCOCC3)C(c3ccc([N+](=O)[O-])cc3)C2)cc1 (stereo not given) , give the reported Activity.
Return: 97.9

Enquiry: For the molecule shown here, COc1ccc(Cl)cc1C(=O)Nc1ccc(C2=NN(C(C)=O)C(c3ccccc3[N+](=O)[O-])C2)cc1 (stereo not given) , give the reported Activity.
Return: 96.15

---

- Test system: Rattus norvegicus
- assay.summary: Antiinflammatory activity in albino rat assessed as protection against carrageenan-induced paw edema at 25 mg/kg, po administered 1 hr prior to carrageenan challenge measured after 4 hrs relative to control
- Assay type: functional
test.readout: Activity (%)
Form entry: value (%) — number only.

- molecule: "COc1ccc(Cl)cc1C(=O)Nc1ccc(C2=NN(c3ccccc3)C(c3ccc([N+](=O)[O-])cc3)C2)cc1 (stereo not drawn)"
  Activity / %: 90.85
- molecule: "COc1ccc(Cl)cc1C(=O)Nc1ccc(C2=NNC(c3ccccc3[N+](=O)[O-])C2)cc1 (stereo not drawn)"
  Activity / %: 88.3

Proceeding to the next molecule to report its Activity.
Enquiry: For Rattus norvegicus, provide Activity of `COc1ccc(Cl)cc1C(=O)Nc1ccc(C(=O)/C=C/c2ccccc2[N+](=O)[O-])cc1` please.
Return: 81.8

---

- Tested on: Rattus norvegicus
- assay.summary: Antiinflammatory activity in albino rat assessed as protection against carrageenan-induced paw edema at 25 mg/kg, po administered 1 hr prior to carrageenan challenge measured after 4 hrs relative to control
- Assay type: functional
Activity: recorded values

Enquiry: For the molecule shown here, COc1ccc(C2CC(c3ccc(NC(=O)c4cc(Cl)ccc4OC)cc3)=NN2c2ccccc2)cc1 (stereo not drawn) , give the reported Activity.
Return: 94.82%

Enquiry: For the molecule shown here, COc1ccc(Cl)cc1C(=O)Nc1ccc(C2=NN(C)C(c3ccc([N+](=O)[O-])cc3)C2)cc1 (stereo not drawn) , give the reported Activity.
Return: 93%

Enquiry: For the molecule shown here, C[C@]12C=CC(=O)C=C1CC[C@@H]1[C@@H]2[C@@H](O)C[C@@]2(C)[C@H]1CC[C@]2(O)C(=O)CO [PREDNISOLONE] , give the reported Activity.
Return: 80.4%

---

- Test system: Rattus norvegicus
- assay.summary: Antiinflammatory activity in albino rat assessed as protection against carrageenan-induced paw edema at 50 mg/kg, po administered 1 hr prior to carrageenan challenge measured after 4 hrs relative to control
- Type: functional
test.readout: Activity (%)
Form entry: value (%) — number only.

These recorded examples may help you get a feel for the data.
- molecule: "COc1ccc(C2CC(c3ccc(NC(=O)c4cc(Cl)ccc4OC)cc3)=NN2c2ccccc2)cc1 (configuration not stated)"
  Activity, %: 98
- molecule: "COc1ccc(Cl)cc1C(=O)Nc1ccc(C2=NN(c3ccccc3)C(c3ccc([N+](=O)[O-])cc3)C2)cc1 (configuration not stated)"
  Activity, %: 94.1
- molecule: "COc1ccc(C2CC(c3ccc(NC(=O)c4cc(Cl)ccc4OC)cc3)=NN2C)cc1 (configuration not stated)"
  Activity, %: 93.15
- molecule: "COc1ccc(/C=C/C(=O)c2ccc(NC(=O)c3cc(Cl)ccc3OC)cc2)cc1"
  Activity, %: 93.1
- molecule: "COc1ccc(Cl)cc1C(=O)Nc1ccc(C2=NN(C)C(c3ccccc3[N+](=O)[O-])C2)cc1 (configuration not stated)"
  Activity, %: 99.5
- molecule: "COc1ccc(Cl)cc1C(=O)Nc1ccc(C2=NN(C)C(c3ccc([N+](=O)[O-])cc3)C2)cc1 (configuration not stated)"
  Activity, %: 97.4

Proceeding to the next molecule to report its Activity.
Enquiry: For the molecule shown here, COc1ccc(Cl)cc1C(=O)Nc1ccc(C2=NN(c3ccccc3)C(c3ccccc3[N+](=O)[O-])C2)cc1 (configuration not stated) , give the reported Activity.
Return: 88.4
